Biological target: Sut1 (UniProt P53032)
Sequence: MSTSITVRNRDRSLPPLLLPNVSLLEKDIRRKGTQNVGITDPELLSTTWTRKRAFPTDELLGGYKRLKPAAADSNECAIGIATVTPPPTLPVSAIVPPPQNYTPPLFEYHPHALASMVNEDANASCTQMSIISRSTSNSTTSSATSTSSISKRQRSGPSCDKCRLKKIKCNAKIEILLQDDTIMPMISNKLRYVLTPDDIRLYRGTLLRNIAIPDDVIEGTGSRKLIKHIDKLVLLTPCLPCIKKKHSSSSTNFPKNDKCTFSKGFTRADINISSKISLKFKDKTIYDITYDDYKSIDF
Test: PBM E-score (8-mer binding enrichment) (E-score (-0.5 to 0.5)); higher = stronger / more preferred TF binding
Conditions: protein concentration: 200 nM; construct: GST-full length
Whole data set: some 33,000 sequences, median “E-score (-0.5 to 0.5)” near -0.017, cut for the highest 2% near 0.3. This excerpt belongs to a sample that is enriched for the highest values.
Decision: PBM E-score >= 0.002 yields 1 (yes), all other cases yield 0 (no).

SEQUENCE RECORD	ASSIGNED CLASS
CTTAGTCC	1 (yes)

input: Has TCCCCGGA a recorded PBM E-score greater than or equal to 0.002?
output: 1 (yes)

input: Has AGTACCTG a recorded PBM E-score greater than or equal to 0.002?
output: 1 (yes)

input: Has CTTCTTCA a recorded PBM E-score greater than or equal to 0.002?
output: 0 (no)

input: Has AATCGTTG a recorded PBM E-score greater than or equal to 0.002?
output: 1 (yes)

input: Has CACCCGGA a recorded PBM E-score greater than or equal to 0.002?
output: 1 (yes)

input: Has CGAGTATA a recorded PBM E-score greater than or equal to 0.002?
output: 1 (yes)

input: Has GCGAGAAA a recorded PBM E-score greater than or equal to 0.002?
output: 1 (yes)

input: Has AGAGTAGA a recorded PBM E-score greater than or equal to 0.002?
output: 1 (yes)

input: Has AGTAGTGC a recorded PBM E-score greater than or equal to 0.002?
output: 0 (no)

input: Has AGTTAGCC a recorded PBM E-score greater than or equal to 0.002?
output: 1 (yes)

input: Has CCCCCGGA a recorded PBM E-score greater than or equal to 0.002?
output: 1 (yes)

input: Has CAAAGTTG a recorded PBM E-score greater than or equal to 0.002?
output: 0 (no)

input: Has TGAGTAAA a recorded PBM E-score greater than or equal to 0.002?
output: 1 (yes)

input: Has ACTCGGAC a recorded PBM E-score greater than or equal to 0.002?
output: 1 (yes)

input: Has CCGAGAAA a recorded PBM E-score greater than or equal to 0.002?
output: 1 (yes)

input: Has TCTCGGAA a recorded PBM E-score greater than or equal to 0.002?
output: 1 (yes)

input: Has ACCCCGGA a recorded PBM E-score greater than or equal to 0.002?
output: 1 (yes)

FYI, the data here is from the supplement of paper PMC3334620.
